FYI, the data here is from patent US20100093722A1.

# target-of-assay: UniProtKB P30542
# Sequence (P30542 whole entry): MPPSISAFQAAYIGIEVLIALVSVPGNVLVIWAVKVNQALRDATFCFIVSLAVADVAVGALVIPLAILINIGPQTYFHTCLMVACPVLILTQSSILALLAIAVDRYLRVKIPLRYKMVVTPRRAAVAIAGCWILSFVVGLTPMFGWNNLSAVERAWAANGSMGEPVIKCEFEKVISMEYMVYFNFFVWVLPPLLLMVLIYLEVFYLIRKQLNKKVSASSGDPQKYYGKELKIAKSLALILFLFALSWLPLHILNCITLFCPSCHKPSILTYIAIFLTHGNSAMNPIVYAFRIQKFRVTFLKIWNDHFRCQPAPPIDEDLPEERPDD
# test-summary: Adenosine A1 Receptor Functional Assay (A1GAL2)
# test-parameters: CHO-K1 cells overexpressing human A1, cAMP inducible beta-galactosidase reporter, 4 nM r-PIA/1 uM Forskolin challenge
pKi: −log10 of the molar value.
measurement-kind: pKi

molecule: COc1cccnc1C(O)c1cc2c(N)nc(-c3cccc(C#N)c3)nc2s1 (stereo not shown) [Example 33]
pKi: 7.07
//
molecule: N#Cc1cccc(-c2nc(N)c3cc(C(O)c4ccc(N5CCCCC5)nc4)sc3n2)c1 (stereo not shown) [Example 12]
pKi: 5.89
//
molecule: N#Cc1cccc(-c2nc(N)c3cc(Cc4cccnc4Cl)sc3n2)c1 [Example 35]
pKi: 6.15
//
molecule: N#Cc1cccc(-c2nc(N)c3cc(C(O)c4ccncc4)sc3n2)c1 (stereo not shown) [Example 28]
pKi: 6.10
//
molecule: COc1ncccc1C(=O)c1cc2c(N)nc(-c3cccc(C#N)c3)nc2s1 [Example 39]
pKi: 6.54

A: N#Cc1cccc(-c2nc(N)c3cc(Cc4cccnc4)sc3n2)c1 [Example 32]
B: COc1cccnc1Cc1cc2c(N)nc(-c3cccc(C#N)c3)nc2s1 [Example 34]
**Query** Could you tell me which of these two has the smaller pKi figure? First: A Second: B When you have decided, please share the label of that item.
**Result** A
(A: 6.39, B: 7.58)

###

# target-of-assay: human adenosine A2a receptor (Homo sapiens, UniProt P29274)
# Sequence (P29274 whole entry): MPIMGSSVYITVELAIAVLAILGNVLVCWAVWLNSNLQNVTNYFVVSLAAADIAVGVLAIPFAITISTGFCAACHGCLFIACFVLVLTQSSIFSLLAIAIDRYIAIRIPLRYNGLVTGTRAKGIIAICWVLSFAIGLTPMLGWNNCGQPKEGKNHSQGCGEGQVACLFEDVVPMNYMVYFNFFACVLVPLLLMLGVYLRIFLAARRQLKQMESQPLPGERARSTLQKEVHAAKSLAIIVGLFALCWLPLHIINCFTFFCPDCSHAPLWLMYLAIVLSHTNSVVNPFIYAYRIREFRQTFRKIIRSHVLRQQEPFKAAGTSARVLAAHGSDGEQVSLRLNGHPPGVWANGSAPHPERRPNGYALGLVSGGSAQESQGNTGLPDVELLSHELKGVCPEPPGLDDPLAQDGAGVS
# test-summary: Adenosine A2a Receptor Functional Assay (A2AGAL2)
# test-parameters: CHO-K1 cells overexpressing human A2a, cAMP inducible beta-galactosidase reporter, 15 nM NECA agonist challenge
# From the text: Adenosine A2a Receptor Functional Assay (A2AGAL2) To initiate the functional assay, cryopreserved CHO-K1 cells overexpressing the human adenosine A2a receptor and containing a cAMP inducible beta-galactosidase reporter gene were thawed, centrifuged, DMSO containing media removed, and then seeded with fresh culture media into clear 384-well tissue culture treated plates (BD #353961) at a concentration of 10K cells/well. […]
measurement-kind: Ki (nM)

Known results for compounds:
compound: COc1ccc(Cc2cc3c(N)nc(-c4cccc(C#N)c4)nc3s2)cn1 [Example 37]
target-of-assay: human adenosine A2a receptor (Homo sapiens, UniProt P29274)
Ki, nM: 64.3
//
compound: N#Cc1cccc(-c2nc(N)c3cc(C(O)c4ccncc4)sc3n2)c1 (stereo not drawn) [Example 28]
target-of-assay: human adenosine A2a receptor (Homo sapiens, UniProt P29274)
Ki, nM: 87.5
//
compound: N#Cc1cccc(-c2nc(N)c3cc(Cc4cccnc4N4CCOCC4)sc3n2)c1 [Example 27]
target-of-assay: human adenosine A2a receptor (Homo sapiens, UniProt P29274)
Ki, nM: 39.8
//
compound: Nc1nc(-c2ccccc2)nc2sc(Cc3ccccn3)cc12 [Example 16]
target-of-assay: human adenosine A2a receptor (Homo sapiens, UniProt P29274)
Ki, nM: 5.71
//
compound: N#Cc1cccc(-c2nc(N)c3cc(C(O)c4ccc(N5CCCCC5)nc4)sc3n2)c1 (stereo not drawn) [Example 12]
target-of-assay: human adenosine A2a receptor (Homo sapiens, UniProt P29274)
Ki, nM: 201

A: N#Cc1cccc(-c2nc(N)c3cc(C(O)c4cccnc4N4CCCCC4)sc3n2)c1 (stereo not drawn) [Example 17]
B: N#Cc1cccc(-c2nc(N)c3cc(Cc4cccnc4)sc3n2)c1 [Example 32]
**Query** Lab log: flag the item ( A or B ) with the smaller Ki figure. Lab log: write the label of the selected item as the result.
**Result** B

I: N#Cc1cccc(-c2nc(N)c3cc(Cc4cccnc4N4CCCCC4)sc3n2)c1 [Example 20]
II: COc1cccnc1Cc1cc2c(N)nc(-c3cccc(C#N)c3)nc2s1 [Example 34]
**Query** Lab note: check whether I or II has the lower measured Ki. Let me know the label of the one you choose.
**Result** II
(II: 1.24 nM, I: 45.3 nM)
